# study-system: T1, ZFP SBS#570 (synthetic)
# T1 chain: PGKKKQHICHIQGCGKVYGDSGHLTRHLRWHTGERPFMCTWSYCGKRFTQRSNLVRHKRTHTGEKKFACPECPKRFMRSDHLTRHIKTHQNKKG
# method-notes: EMSA
# stated-conditions: tags: MBP fusion
pKd: −log10 of the molar value.
measured-property: pKd

INSERT INTO measurements (binder, measured_property, val) VALUES
  ('GGGGAAGGCT (dsDNA) DNA 1: GGGGAAGGCT DNA 2: AGCCTTCCCC', 'pKd', 7.70);
